Target: UniProt P41587
Assay: Antagonist activity at recombinant human N-terminal signal peptide/FLAG epitope-tagged VIPR2 expressed in HEK293 cells co-expressing CAMYEL assessed as inhibition of VIP-induced cAMP accumulation at 5 uM preincubated for 5 mins with luciferin, coelenterazine H followed by VIP addition measured after 5 mins by BRET assay relative to control
Assay type: functional, cell-based
property label: inhibition (%)

> print(dat)
                                chem.smiles  value.unit  value.measured
1  O=C(NC[C@@H](O)C[C@@H](Cc1ccccc1)C(=O)N[C@H]1c2ccccc2C[C@H]1O)c1c(Cl)cc(Cl)cc1Cl           %            12.3
2  N#Cc1ccc(S(=O)(=O)NC[C@@H](O)C[C@@H](Cc2ccccc2)C(=O)N[C@H]2c3ccccc3C[C@H]2O)cc1           %            93.1
3  O=C(N[C@H]1c2ccccc2C[C@H]1O)[C@H](Cc1ccccc1)C[C@H](O)CNS(=O)(=O)c1cccc([N+](=O)[O-])c1           %            21.3
4  O=C(NC1CCCC1)[C@H](Cc1ccccc1)C[C@H](O)CNS(=O)(=O)c1ccc([N+](=O)[O-])cc1           %             4.7

(1) O=C(N[C@H]1c2ccccc2C[C@H]1O)[C@H](Cc1ccccc1)C[C@H](O)CNS(=O)(=O)c1ccccc1C(F)(F)F
(2) CC(=O)Nc1ccc(S(=O)(=O)NC[C@H](C[C@@H](Cc2ccccc2)C(=O)N[C@H]2c3ccccc3C[C@H]2OC(C)=O)OC(C)=O)cc1
(3) COc1cc(C(=O)NC[C@@H](O)C[C@@H](Cc2ccccc2)C(=O)N[C@H]2c3ccccc3C[C@H]2O)cc(OC)c1OC
Please list these molecules in decreasing order of inhibition. The response must list the labels following the requested ordering. 1, 3, 2

(P) Nc1ccc(S(=O)(=O)NC[C@@H](O)C[C@@H](Cc2ccccc2)C(=O)N[C@H]2c3ccccc3C[C@H]2O)cc1
(Q) O=C(NCc1ccccc1)c1ccc(S(=O)(=O)NC[C@@H](O)C[C@@H](Cc2ccccc2)C(=O)N[C@H]2c3ccccc3C[C@H]2O)cc1
Of P and Q , whose reported inhibition is numerically smaller? Answer format: the label of the selected item. P

---

Target: Vasoactive intestinal polypeptide receptor 2 (Homo sapiens) (UniProt P41587)
Sequence (whole entry): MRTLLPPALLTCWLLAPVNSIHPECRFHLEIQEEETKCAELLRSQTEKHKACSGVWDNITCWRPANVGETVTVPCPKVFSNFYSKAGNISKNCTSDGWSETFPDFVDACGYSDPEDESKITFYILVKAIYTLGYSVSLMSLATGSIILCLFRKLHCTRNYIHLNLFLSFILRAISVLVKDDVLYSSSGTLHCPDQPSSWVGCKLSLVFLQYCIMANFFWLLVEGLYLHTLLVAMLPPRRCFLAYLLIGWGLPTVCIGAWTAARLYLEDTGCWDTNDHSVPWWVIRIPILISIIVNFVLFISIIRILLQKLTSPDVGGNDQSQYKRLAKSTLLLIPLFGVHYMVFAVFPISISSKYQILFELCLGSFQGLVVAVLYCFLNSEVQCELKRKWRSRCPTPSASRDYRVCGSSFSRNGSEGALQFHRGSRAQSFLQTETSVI
Test: Antagonist activity at recombinant human N-terminal signal peptide/FLAG epitope-tagged Rluc8-fused VIPR2 expressed in HEK293 cells assessed as inhibition of VIP-induced human mVenus-beta-arrestin2 binding at 0.5 uM preincubated for 5 mins with luciferin, coelenterazine H followed by VIP addition measured after 5 mins by BRET assay relative to control
Assay type: cell-based
Recorded inhibition for the following compounds

> print(dat)
                                chem.smiles                           target.of.assay  property.label  value.measured
1  CCNC(=O)[C@H](Cc1ccccc1)C[C@H](O)CNS(=O)(=O)c1ccc([N+](=O)[O-])cc1  Vasoactive intestinal polypeptide receptor 2 (Homo sapiens) (UniProt P41587)      inhibition  -9.25 to 15.2%
2  O=C(NC1CCCCCC1)[C@@H](Cc1ccccc1)C[C@H](O)CNS(=O)(=O)c1ccc([N+](=O)[O-])cc1  Vasoactive intestinal polypeptide receptor 2 (Homo sapiens) (UniProt P41587)      inhibition     -4 to 10.6%

Report inhibition for O=C(NCCc1cccc(Cl)c1)[C@@H](Cc1ccccc1)C[C@H](O)CNS(=O)(=O)c1ccc([N+](=O)[O-])cc1 please. 11.1 to 13.8%

Report inhibition for O=C(NC1CCCC1)[C@H](Cc1ccccc1)C[C@H](O)CNS(=O)(=O)c1ccc([N+](=O)[O-])cc1 please. 6.95 to 17.4%
